The origin of these recorded values is patent US20230192831A1.

Biological target: recombinant human GREM1 (hGREM1-His; C-terminal 10His tagged, R&D, #5190-GR) (human) (UniProt O60565)
Sequence (O60565 other isoform, or with tags, fused parts or gaps limits assumed, form in doubt): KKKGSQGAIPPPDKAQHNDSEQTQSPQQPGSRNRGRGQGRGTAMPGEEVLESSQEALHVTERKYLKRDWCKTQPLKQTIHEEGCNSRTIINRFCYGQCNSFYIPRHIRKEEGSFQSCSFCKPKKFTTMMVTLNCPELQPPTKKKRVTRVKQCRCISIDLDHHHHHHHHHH
Experiment: cell-based or functional assay
Measured endpoint: hGREM1-His Inhibition IC50, M; W-20-17 cell differentiation assay (alkaline phosphatase)

{"Binder": "H4H6245P (antibody, human IgG4, V domains shown) VH: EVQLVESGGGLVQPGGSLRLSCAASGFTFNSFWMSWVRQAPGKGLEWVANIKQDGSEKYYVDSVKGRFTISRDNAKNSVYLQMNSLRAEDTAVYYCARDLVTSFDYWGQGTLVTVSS VL: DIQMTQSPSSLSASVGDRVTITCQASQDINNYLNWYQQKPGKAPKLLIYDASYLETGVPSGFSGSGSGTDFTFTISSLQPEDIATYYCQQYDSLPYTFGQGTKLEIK", "Test value": "6.1 nM"}
{"Binder": "H4H6232P (antibody, human IgG4, V domains shown) VH: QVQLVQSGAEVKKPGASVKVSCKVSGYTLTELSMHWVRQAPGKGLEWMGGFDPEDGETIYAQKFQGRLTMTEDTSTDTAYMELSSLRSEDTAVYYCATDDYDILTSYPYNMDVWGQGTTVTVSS VL: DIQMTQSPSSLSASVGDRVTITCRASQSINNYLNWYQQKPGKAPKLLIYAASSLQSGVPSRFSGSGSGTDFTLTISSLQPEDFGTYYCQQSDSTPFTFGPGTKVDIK", "Test value": "4.5 nM"}
{"Binder": "H4H6252P (antibody, human IgG4, V domains shown) VH: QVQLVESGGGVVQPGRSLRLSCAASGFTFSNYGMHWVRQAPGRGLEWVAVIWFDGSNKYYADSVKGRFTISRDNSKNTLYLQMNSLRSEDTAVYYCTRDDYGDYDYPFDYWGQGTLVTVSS VL: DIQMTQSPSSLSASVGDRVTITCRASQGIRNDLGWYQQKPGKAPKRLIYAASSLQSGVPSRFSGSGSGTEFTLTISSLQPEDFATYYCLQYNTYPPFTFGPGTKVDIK", "Test value": "6.1 nM"}
{"Binder": "H4H2895N (antibody, human IgG4, V domains shown) VH: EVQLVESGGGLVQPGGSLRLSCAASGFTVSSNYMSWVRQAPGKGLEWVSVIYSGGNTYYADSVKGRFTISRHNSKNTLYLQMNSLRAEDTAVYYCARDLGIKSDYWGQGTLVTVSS VL: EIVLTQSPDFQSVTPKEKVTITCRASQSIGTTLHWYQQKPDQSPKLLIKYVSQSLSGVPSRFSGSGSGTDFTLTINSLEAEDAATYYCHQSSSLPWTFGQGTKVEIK", "Test value": "1.9 nM"}
